Entries and their shrunken log2 fold change values follow.
Tested on: Escherichia coli TOP10;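 also: peptides expressed intracellularly from a pBAD plasmid library in pooled LB shake-flask culture, induced with 0.3% L-arabinose, DNA abundance read by NGS, three biological replicates, DESeq2 with apeglm shrinkage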
Test: shrunken log2 fold change of peptide-encoding DNA abundance (4.5 h post-induction vs induction); higher = less antimicrobial activity (less host growth inhibition)
Settings: time post-induction: 4.5 h; library: site-saturation at positions 5, 18, 19, 20
outcome.measure: shrunken log2 fold change

[[record]]
chain = "RRIRLRPPRLPRPRPRPESTPRP"
study_target = "Escherichia coli TOP10"
numeric_result = 0.0274

[[record]]
chain = "RRIRPRPPRLPRPRPRPIESPRP"
study_target = "Escherichia coli TOP10"
numeric_result = -0.252

[[record]]
chain = "RRIRWRPPRLPRPRPRPGDCPRP"
study_target = "Escherichia coli TOP10"
numeric_result = 0.00839

[[record]]
chain = "RRIRLRPPRLPRPRPRPPDQPRP"
study_target = "Escherichia coli TOP10"
numeric_result = 0.349

[[record]]
chain = "RRIRVRPPRLPRPRPRPKNGPRP"
study_target = "Escherichia coli TOP10"
numeric_result = -0.129

[[record]]
chain = "RRIRTRPPRLPRPRPRPTKMPRP"
study_target = "Escherichia coli TOP10"
numeric_result = -0.355

[[record]]
chain = "RRIRYRPPRLPRPRPRPDFSPRP"
study_target = "Escherichia coli TOP10"
numeric_result = 0.0939

[[record]]
chain = "RRIRARPPRLPRPRPRPQTQPRP"
study_target = "Escherichia coli TOP10"
numeric_result = 0.628

[[record]]
chain = "RRIRVRPPRLPRPRPRPIFYPRP"
study_target = "Escherichia coli TOP10"
numeric_result = -0.378

[[record]]
chain = "RRIRTRPPRLPRPRPRPHSDPRP"
study_target = "Escherichia coli TOP10"
numeric_result = -0.00801

[[record]]
chain = "RRIRWRPPRLPRPRPRPWWDPRP"
study_target = "Escherichia coli TOP10"
numeric_result = 0.0125

[[record]]
chain = "RRIRIRPPRLPRPRPRPFAHPRP"
study_target = "Escherichia coli TOP10"
numeric_result = -0.241

[[record]]
chain = "RRIRFRPPRLPRPRPRPEMIPRP"
study_target = "Escherichia coli TOP10"
numeric_result = 0.169

[[record]]
chain = "RRIRERPPRLPRPRPRPIWSPRP"
study_target = "Escherichia coli TOP10"
numeric_result = 0.0428

[[record]]
chain = "RRIRKRPPRLPRPRPRPDFVPRP"
study_target = "Escherichia coli TOP10"
numeric_result = 0.0472

[[record]]
chain = "RRIRNRPPRLPRPRPRPPKSPRP"
study_target = "Escherichia coli TOP10"
numeric_result = 0.338

[[record]]
chain = "RRIRMRPPRLPRPRPRPVRRPRP"
study_target = "Escherichia coli TOP10"
numeric_result = 0.447

[[record]]
chain = "RRIRHRPPRLPRPRPRPKLNPRP"
study_target = "Escherichia coli TOP10"
numeric_result = -0.248

[[record]]
chain = "RRIRDRPPRLPRPRPRPTKMPRP"
study_target = "Escherichia coli TOP10"
numeric_result = 0.269

[[record]]
chain = "RRIRGRPPRLPRPRPRPQNCPRP"
study_target = "Escherichia coli TOP10"
numeric_result = 0.0394

[[record]]
chain = "RRIRHRPPRLPRPRPRPEYQPRP"
study_target = "Escherichia coli TOP10"
numeric_result = -0.3

[[record]]
chain = "RRIRPRPPRLPRPRPRPGSNPRP"
study_target = "Escherichia coli TOP10"
numeric_result = -0.082

[[record]]
chain = "RRIRHRPPRLPRPRPRPTPRPRP"
study_target = "Escherichia coli TOP10"
numeric_result = 0.609

[[record]]
chain = "RRIRERPPRLPRPRPRPMEHPRP"
study_target = "Escherichia coli TOP10"
numeric_result = 0.0106

[[record]]
chain = "RRIRDRPPRLPRPRPRPDEAPRP"
study_target = "Escherichia coli TOP10"
numeric_result = 0.12

[[record]]
chain = "RRIRGRPPRLPRPRPRPYPHPRP"
study_target = "Escherichia coli TOP10"
numeric_result = 0.103

[[record]]
chain = "RRIRVRPPRLPRPRPRPFKMPRP"
study_target = "Escherichia coli TOP10"
numeric_result = -0.398

[[record]]
chain = "RRIRARPPRLPRPRPRPVCTPRP"
study_target = "Escherichia coli TOP10"
numeric_result = 0.434

[[record]]
chain = "RRIRFRPPRLPRPRPRPCLCPRP"
study_target = "Escherichia coli TOP10"
numeric_result = -0.0404

[[record]]
chain = "RRIRFRPPRLPRPRPRPAIGPRP"
study_target = "Escherichia coli TOP10"
numeric_result = -0.0142

[[record]]
chain = "RRIRLRPPRLPRPRPRPKEPPRP"
study_target = "Escherichia coli TOP10"
numeric_result = -0.0333

[[record]]
chain = "RRIRVRPPRLPRPRPRPIQQPRP"
study_target = "Escherichia coli TOP10"
numeric_result = 0.00847


Data provenance is the supplement of paper PMC9112550.
